# system.under.test: T1, CGH-1_(248–420) H269A (C. elegans, UniProt Q95YF3 248-420, H269A)
# T1 construct: Mutant of m1 made with the MutanBEST kit; source: E. coli Gold (DE3), purified (Ni-chelating resin, SEC Superdex 75)
# T1 sequence (looked up): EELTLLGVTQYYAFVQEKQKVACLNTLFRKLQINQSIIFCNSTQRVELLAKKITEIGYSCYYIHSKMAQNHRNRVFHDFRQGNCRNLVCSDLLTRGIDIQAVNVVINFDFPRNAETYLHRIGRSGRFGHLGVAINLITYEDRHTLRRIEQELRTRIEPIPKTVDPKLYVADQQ
# test.summary: ITC; ligand (peptide or CAR-1 fragment, 0.5 mM) injected into CGH-1_(248-420) or mutant (0.05 mM) in the cell; 20 °C; Buffer B (20 mM Tris-HCl pH 7.5, 150 mM NaCl); one-binding-site model
# experimental.setup: both partners purified
property.label: Kd (nM)

{"binder": "LADPIDFDLDSDFDFAENLKLFEKDENDDQYYETVEK (Enhancer of decapping-3 (EDC-3, also called LSm16), C. elegans, FDF fragment, residues 235-271; Printed with free NH2 and COOH ends; also called EDC-3 peptide; EDC-3 FDF-FEK peptide; source: synthetic peptide (GL Biochem, Shanghai)) [EDC-3 FDF peptide (EDC-3_(235–271))]", "number": 2550}
